Recorded values, source patent US12077503B2.

# Tested on: Galium (catchweed bedstraw, Galium aparine)
# test_description: Test A postemergence
# Assay type: in vivo
# condition_set: Postemergence, 500 g ai/ha; 0 to 100 scale where 0 is no effect and 100 is complete control
measured_parameter: Plant response rating, Galium
Answer using only a numeral; do not append any unit.

Answered cases to consult:
compound="O=C1NCC(c2cc(F)cc(C(F)(F)F)c2)C1C(=O)Nc1cccc(F)c1F (stereo not shown)" measured_parameter="Plant response rating, Galium" reported=50
compound="O=C(Nc1ccccc1F)C1C(=O)N(CC=CBr)CC1c1cccc(C(F)(F)F)c1 (stereo not shown)" measured_parameter="Plant response rating, Galium" reported=0
compound="C#CCN1CC(c2cccc(C(F)(F)F)c2)C(C(=O)Nc2ccccc2F)C1=O (stereo not shown)" measured_parameter="Plant response rating, Galium" reported=0

Please examine the following record next.
Problem: Look up Plant response rating, Galium of CN1CC(c2ccc(C(F)(F)F)cc2F)C(C(=O)Nc2cccc(F)c2F)C1=O (stereo not shown) and report it.
Result: 50
